Assay: Caco-2 two-way permeability and efflux
Type: in vitro ADME
Conditions: human; Caco-2, 120 min incubation
Outcome measure: Papp A→B at 120 min (×10⁻⁶ cm/s)

CCNC(=O)Nc1ccc(-c2sc3c(c2CN(C)C)c(=O)n(-c2ccc(OC)nn2)c(=O)n3Cc2c(F)cccc2F)cc1; 0.00816
CONC(=O)Nc1ccc(-c2sc3c(c2CN(C)C)c(=O)n(-c2cccc(OC(F)F)c2F)c(=O)n3Cc2c(F)cccc2F)cc1; 0.126
CONC(=O)Nc1ccc(-c2sc3c(c2CN(C)C)c(=O)n(-c2ccc(OC)nn2)c(=O)n3Cc2c(F)cccc2C(F)(F)F)cc1; 0.011

[a] COc1ccc(-n2c(=O)c3c(CN(C)C)c(-c4ccc(NC(=O)NOCC(F)F)cc4)sc3n(Cc3c(F)cccc3F)c2=O)nn1
[b] CNc1ccc(-n2c(=O)c3c(CN(C)C)c(-c4ccc(NC(=O)NOC)cc4)sc3n(Cc3c(F)cccc3F)c2=O)nn1
[c] CONC(=O)Nc1ccc(-c2oc3c(c2CN(C)C)c(=O)n(-c2ccc(OC)nn2)c(=O)n3Cc2c(F)cccc2F)cc1
Request: Please rank these compounds by Papp A→B at 120 min in descending order. Field: ranking. Enter the labels in the order requested.
Result: c, b, a

----------
Assay: Metabolic stability in rat liver microsomes
Type: in vitro ADME, SD rat
Conditions: SD; Rat liver microsomes
Outcome measure: half-life (min)
Reply with just the number (in min).

Request: Name the reported half-life value associated with the molecule CCNC(=O)Nc1ccc(-c2sc3c(c2CN(C)C)c(=O)n(-c2ccc(OC)nn2)c(=O)n3Cc2c(F)cccc2F)cn1 [Compound 2]
Result: 87.7

----------
Test: Metabolic stability in rat liver microsomes
Format: in vitro ADME, SD rat
Details: Sprague-Dawley (SD); Rat liver microsomes
Outcome measure: half-life (h)

Below, each entry is followed by its recorded half-life result.
CONC(=O)Nc1ccc(-c2sc3c(c2CN(C)C)c(=O)n(-c2cccc(OC(F)F)c2F)c(=O)n3Cc2c(F)cccc2F)cc1; 0.663
CNc1ccc(-n2c(=O)c3c(CN(C)C)c(-c4ccc(NC(=O)NOC)cc4)sc3n(Cc3c(F)cccc3F)c2=O)nn1; 1.19

[a] CONC(=O)Nc1ccc(-c2sc3c(c2CN(C)C)c(=O)n(-c2ccc(OC)nn2)c(=O)n3Cc2c(F)cccc2F)cc1 [Relugolix, reference compound]
[b] COc1ccc(-n2c(=O)c3c(CN(C)C)c(-c4ccc(NC(=O)NOCC(F)F)cc4)sc3n(Cc3c(F)cccc3F)c2=O)nn1
Request: Of a versus b , which is the one with smaller reported half-life? Refer to your chosen item by its label in the answer.
Result: b

----------
Test: Metabolic stability in human liver microsomes
Type: in vitro ADME
Conditions: NADPH, 37° C.
Outcome measure: Residual content at 60 min (%)

COc1ccc(-n2c(=O)c3c(CN(C)C)c(-c4ccc(NC(=O)NOCC(F)F)cc4)sc3n(Cc3c(F)cccc3F)c2=O)nn1; 75.5
CONC(=O)Nc1ccc(-c2sc3c(c2CN(C)C)c(=O)n(-c2ccc(OC)nn2)c(=O)n3Cc2c(F)cccc2C(F)(F)F)cc1; 89.0
CNc1ccc(-n2c(=O)c3c(CN(C)C)c(-c4ccc(NC(=O)NOC)cc4)sc3n(Cc3c(F)cccc3F)c2=O)nn1; 95.9
CONC(=O)Nc1ccc(-c2oc3c(c2CN(C)C)c(=O)n(-c2ccc(OC)nn2)c(=O)n3Cc2c(F)cccc2F)cc1; 104

[1] CCNC(=O)Nc1ccc(-c2sc3c(c2CN(C)C)c(=O)n(-c2ccc(OC)nn2)c(=O)n3Cc2c(F)cccc2F)cn1
[2] CONC(=O)Nc1ccc(-c2sc3c(c2CN(C)C)c(=O)n(-c2cccc(OC(F)F)c2F)c(=O)n3Cc2c(F)cccc2F)cc1
Request: Could you point out whether the larger Residual content at 60 min belongs to 1 or to 2 ? Refer to your chosen item by its label in the answer.
Result: 1
(1: 83.8%, 2: 55.5%)
